- targetDesc: T1, recombinant CD47 (recCD47), SinoBiological 12283-H27H-B, biotinylated (human, UniProt Q08722 19-139, biotinylated (AVI-tag))
- T1 construct: Bought protein, 17 kDa; At 17 kDa it can only be a part of it; also called recombinant biotinylated CD47; not shown: C-terminal His- and AVI-tag
- T1 sequence (Q08722 19-139 limits assumed): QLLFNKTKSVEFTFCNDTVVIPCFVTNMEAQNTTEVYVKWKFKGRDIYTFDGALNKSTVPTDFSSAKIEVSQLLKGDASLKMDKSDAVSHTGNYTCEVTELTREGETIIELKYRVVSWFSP
- experimentSummary: SPR Biacore S200, single-cycle, recCD47 on SA chip 100 RU, antibody as analyte, 25 C, 1:1 model;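 further: antibodies were injected over the captured CD47 at a series of concentrations, and KD was derived as the dissociation rate constant divided by the association rate constant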
measuredAttribute: kon (M⁻¹ s⁻¹)

binder	valueReported
CO213 humanized IgG4 anti-CD47 antibody (antibody, V domains shown, also called huCO-mAb) VH: QVQLVQSGSELKKPGASVKVSCKASGYTFTNFGMHWVRQAPGQGLKWMGWINTYTGEPTYTDDFKGRFVFSLDTSVSTAYLQISSLKAEDTAVYYCARGDYRYGDSWGQGTTVTVSS VL: DIVMTQTPLSLSVTPGQPASISCRSSQSLVHSNGKTYLHWYLQKPGQPPQLLIYRVSNRFSGVPDRFSGSGSGTDFTLKISRVEAEDVGVYYCSQSTHVPFTFGQGTKLEIK	1.1e+07

Attribution: patent US20260234246A1
